# measurementProtocol: Human HepG2 cell viability assay in 384 well format
# Format: toxicity, cell-based
# Design: dose 125 nL, time 70.5 hour; concentration not given beside the values
# experimentalSetup: HepG2 cells, read-out: Inhibition
# cytotoxicity at 70.5 h per entry
valueType: cytotoxicity at 70.5 h (%)

>  <compound>
COCCN1CCc2ncnc(OC(C)C)c2CC1

>  <valueType>
cytotoxicity at 70.5 h

>  <endpointUnit>
%

>  <resultValue>
-9.41

$$$$
>  <compound>
CCNC(=O)C1CCCN(C(=O)Nc2cc(C#N)ccc2OCC)C1 (stereo not drawn)

>  <valueType>
cytotoxicity at 70.5 h

>  <endpointUnit>
%

>  <resultValue>
0.887

$$$$
>  <compound>
O=C(Cc1cccs1)N1C[C@@H]2COC[C@]2(COc2cccnc2)C1

>  <valueType>
cytotoxicity at 70.5 h

>  <endpointUnit>
%

>  <resultValue>
-1.72

$$$$
>  <compound>
CCC[C@@H]1CN(c2ncnc3sccc23)C[C@H]1NS(C)(=O)=O

>  <valueType>
cytotoxicity at 70.5 h

>  <endpointUnit>
%

>  <resultValue>
-4.58

$$$$
>  <compound>
CC(C)n1nnnc1-c1ccc(NC(=O)CC(F)(F)F)cc1F

>  <valueType>
cytotoxicity at 70.5 h

>  <endpointUnit>
%

>  <resultValue>
-1.35

$$$$
>  <compound>
CSCc1noc(C2CCC(=O)N(CCCN3CCCC3=O)C2)n1 (stereo not drawn)

>  <valueType>
cytotoxicity at 70.5 h

>  <endpointUnit>
%

>  <resultValue>
-4.64

$$$$
>  <compound>
Cc1nn(C)c(C)c1C1CCCN1CC(=O)Nc1ccc(Cl)cn1 (stereo not drawn)

>  <valueType>
cytotoxicity at 70.5 h

>  <endpointUnit>
%

>  <resultValue>
2.19

$$$$
>  <compound>
O=c1[nH]c(N2CCN(C3CC3)CC2)nc2c1cnn2-c1ccccc1

>  <valueType>
cytotoxicity at 70.5 h

>  <endpointUnit>
%

>  <resultValue>
-6.97

$$$$
>  <compound>
Cc1cccc(NC(=O)C2CCc3ccccc3N2)c1 (stereo not drawn)

>  <valueType>
cytotoxicity at 70.5 h

>  <endpointUnit>
%

>  <resultValue>
-0.623

$$$$
>  <compound>
COc1nn(C)c2c1CCCN(C(=O)c1ccccc1)C2

>  <valueType>
cytotoxicity at 70.5 h

>  <endpointUnit>
%

>  <resultValue>
-5.54

$$$$
>  <compound>
COCCNC(=O)NCc1ccc(-n2ccc(C(F)(F)F)n2)cc1

>  <valueType>
cytotoxicity at 70.5 h

>  <endpointUnit>
%

>  <resultValue>
-7.44

$$$$
>  <compound>
CC(C)(C)c1n[nH]c(C2CN(Cc3ncc[nH]3)CCO2)n1 (stereo not drawn)

>  <valueType>
cytotoxicity at 70.5 h

>  <endpointUnit>
%

>  <resultValue>
-0.788

$$$$
>  <compound>
CC(C)c1nc2c(n1C)CCN(CCCc1nc3ccccc3o1)C2

>  <valueType>
cytotoxicity at 70.5 h

>  <endpointUnit>
%

>  <resultValue>
-0.617

$$$$
>  <compound>
COc1ccc(C(C)C)cc1C1CC(=O)NCc2nc(N(C)C)sc21 (stereo not drawn)

>  <valueType>
cytotoxicity at 70.5 h

>  <endpointUnit>
%

>  <resultValue>
13.4

$$$$
>  <compound>
O=C(c1ccc2sccc2c1)N1CCC(C(=O)O)(n2cccn2)CC1

>  <valueType>
cytotoxicity at 70.5 h

>  <endpointUnit>
%

>  <resultValue>
-6.51

$$$$
>  <compound>
CSc1ccccc1C(=O)N1CCOC(CCN(C)C)C1 (stereo not drawn)

>  <valueType>
cytotoxicity at 70.5 h

>  <endpointUnit>
%

>  <resultValue>
-15.3

$$$$
>  <compound>
COc1ccc(C)cc1C(C)NS(=O)(=O)c1ccc2c(c1)CCC(=O)N2 (stereo not drawn)

>  <valueType>
cytotoxicity at 70.5 h

>  <endpointUnit>
%

>  <resultValue>
8.83

$$$$
>  <compound>
O=C(c1cccc(S(=O)(=O)NCCc2ccccn2)c1)N1CCOCC1

>  <valueType>
cytotoxicity at 70.5 h

>  <endpointUnit>
%

>  <resultValue>
-2.52

$$$$
>  <compound>
COc1cc2c(cc1CN1CCC3(CCCN(C)C3=O)C1)OCCO2 (stereo not drawn)

>  <valueType>
cytotoxicity at 70.5 h

>  <endpointUnit>
%

>  <resultValue>
-15.9

$$$$
>  <compound>
CCCC(=O)N(Cc1ccncc1)C(C)CC (stereo not drawn)

>  <valueType>
cytotoxicity at 70.5 h

>  <endpointUnit>
%

>  <resultValue>
-6.83

$$$$
>  <compound>
CCc1nc2c(NCC3COc4c(cccc4OC)C3)ncnc2o1 (stereo not drawn)

>  <valueType>
cytotoxicity at 70.5 h

>  <endpointUnit>
%

>  <resultValue>
-4.9

$$$$
>  <compound>
CCc1nc(C2CCCN2CCCS(=O)(=O)c2ccccc2)no1 (stereo not drawn)

>  <valueType>
cytotoxicity at 70.5 h

>  <endpointUnit>
%

>  <resultValue>
-7.66

$$$$
>  <compound>
CCc1nc(CN(C)C(=O)c2cc(CN(CC)CC)c(CC)o2)no1

>  <valueType>
cytotoxicity at 70.5 h

>  <endpointUnit>
%

>  <resultValue>
-11.7

$$$$
>  <compound>
CC(C)c1ccc2c(c1)C1(CC(=O)Nc3[nH]ncc31)C(=O)N2C (stereo not drawn)

>  <valueType>
cytotoxicity at 70.5 h

>  <endpointUnit>
%

>  <resultValue>
-19.6

$$$$
>  <compound>
Cc1csc(N2CCCN(C(=O)c3c(C)noc3C)CC2)n1

>  <valueType>
cytotoxicity at 70.5 h

>  <endpointUnit>
%

>  <resultValue>
-8.3

$$$$
>  <compound>
CC(=O)N1CCc2[nH]cnc2C1C1=CCCN(CCn2cccc2)C1 (stereo not drawn)

>  <valueType>
cytotoxicity at 70.5 h

>  <endpointUnit>
%

>  <resultValue>
-4.34

$$$$
>  <compound>
CCNc1ncnc2c1CN(C1CCCNCC1)C(=O)CN2C (stereo not drawn)

>  <valueType>
cytotoxicity at 70.5 h

>  <endpointUnit>
%

>  <resultValue>
1.19

$$$$
>  <compound>
COc1ccc(S(=O)(=O)C(F)(F)F)cc1NC(=O)CSCC#N

>  <valueType>
cytotoxicity at 70.5 h

>  <endpointUnit>
%

>  <resultValue>
1.04

$$$$
>  <compound>
O=C1NC2(CCN(C/C=C/c3ccccc3)CC2)CC1c1ccccc1 (stereo not drawn)

>  <valueType>
cytotoxicity at 70.5 h

>  <endpointUnit>
%

>  <resultValue>
10.6

$$$$
>  <compound>
COC(CNC(=O)c1cn(C)nn1)c1ccc(C)s1 (stereo not drawn)

>  <valueType>
cytotoxicity at 70.5 h

>  <endpointUnit>
%

>  <resultValue>
-6.13

$$$$
>  <compound>
CCOCC1c2c(cnn2CC2CC2)CCN1Cc1nccs1 (stereo not drawn)

>  <valueType>
cytotoxicity at 70.5 h

>  <endpointUnit>
%

>  <resultValue>
-9.55

$$$$
>  <compound>
Cc1nc(CN(C)C)cc(N2CCCC(COc3ccc(F)cc3)C2)n1 (stereo not drawn)

>  <valueType>
cytotoxicity at 70.5 h

>  <endpointUnit>
%

>  <resultValue>
-5.18

$$$$
>  <compound>
Cc1ccc(S(=O)(=O)NC2=NCN(CCc3cccs3)CN2)cc1

>  <valueType>
cytotoxicity at 70.5 h

>  <endpointUnit>
%

>  <resultValue>
-14.3

$$$$
>  <compound>
NC(=O)C(NC(=O)CSCc1ccc(Cl)s1)c1ccccc1 (stereo not drawn)

>  <valueType>
cytotoxicity at 70.5 h

>  <endpointUnit>
%

>  <resultValue>
-1.53

$$$$
>  <compound>
O=C(NCCc1ccncc1)c1cccc(S(=O)(=O)N[C@@H]2CCNC2)c1

>  <valueType>
cytotoxicity at 70.5 h

>  <endpointUnit>
%

>  <resultValue>
19

$$$$
>  <compound>
O=c1cc(CN2CCCC2)nc2n1CCCN(Cc1ccsc1)C2

>  <valueType>
cytotoxicity at 70.5 h

>  <endpointUnit>
%

>  <resultValue>
-17.6

$$$$
>  <compound>
CNCC(=O)N1CCC(c2ccnc(Nc3ccc(C)cn3)n2)C1 (stereo not drawn)

>  <valueType>
cytotoxicity at 70.5 h

>  <endpointUnit>
%

>  <resultValue>
-1.4

$$$$
>  <compound>
N#Cc1ccc(OCC(O)CN2CCC(c3ccn[nH]3)CC2)cc1 (stereo not drawn)

>  <valueType>
cytotoxicity at 70.5 h

>  <endpointUnit>
%

>  <resultValue>
-14.4

$$$$
>  <compound>
O=C(OCC1CCCN(C(=O)c2ccccc2)C1)c1cscn1 (stereo not drawn)

>  <valueType>
cytotoxicity at 70.5 h

>  <endpointUnit>
%

>  <resultValue>
-88.6

$$$$
>  <compound>
CC(NC(=O)CSCC#N)c1ccc(Cl)cc1 (stereo not drawn)

>  <valueType>
cytotoxicity at 70.5 h

>  <endpointUnit>
%

>  <resultValue>
-4.42

$$$$
>  <compound>
O=C1CC(C(=O)O)C2(CCN(C(=O)NCc3ccc(Cl)cc3)CC2)N1 (stereo not drawn)

>  <valueType>
cytotoxicity at 70.5 h

>  <endpointUnit>
%

>  <resultValue>
-2.42

$$$$
>  <compound>
O=C(c1cccc2c1OCCO2)N1CCCCC1Cn1cccn1 (stereo not drawn)

>  <valueType>
cytotoxicity at 70.5 h

>  <endpointUnit>
%

>  <resultValue>
-6.1

$$$$
>  <compound>
CCC(C)NC(=O)CCNC(=O)c1c[nH]cc1-c1cccc(OC)c1 (stereo not drawn)

>  <valueType>
cytotoxicity at 70.5 h

>  <endpointUnit>
%

>  <resultValue>
2.46

$$$$
>  <compound>
Cc1nc(C(C)(C)C)sc1C(=O)NCCn1ccnc1

>  <valueType>
cytotoxicity at 70.5 h

>  <endpointUnit>
%

>  <resultValue>
-7.91

$$$$
>  <compound>
CCCc1nn(Cc2ccc(Br)s2)c(=O)o1

>  <valueType>
cytotoxicity at 70.5 h

>  <endpointUnit>
%

>  <resultValue>
-23.4

$$$$
>  <compound>
O=C(NCCN1CCOCC1)c1cc(COc2ccccc2F)[nH]n1

>  <valueType>
cytotoxicity at 70.5 h

>  <endpointUnit>
%

>  <resultValue>
0.766

$$$$
>  <compound>
COc1cc(CNc2nncs2)cc(OC)c1OC

>  <valueType>
cytotoxicity at 70.5 h

>  <endpointUnit>
%

>  <resultValue>
12.6

$$$$
>  <compound>
CN1CCN(CC(NCc2ccc(F)cc2)c2ccccc2)CC1 (stereo not drawn)

>  <valueType>
cytotoxicity at 70.5 h

>  <endpointUnit>
%

>  <resultValue>
17.2

$$$$
